Let's look at some IC50 data for UniProt:O75907 that I collected from the literature.
REPORTED ENDPOINT: IC50 (nM)

>>> obs_value("O=C(O)Cc1ccc(OC2CCN(c3ccc(-c4nc5cc(Cl)ccc5[nH]4)cn3)CC2)cc1")
1
>>> obs_value("O=C(Nc1ccc(N2CCN(C(=S)Nc3ccc(Cl)cc3Cl)CC2)cc1)c1ccccc1-c1ccc(C(F)(F)F)cc1")
7240
>>> obs_value("O=C(CCCc1ccccc1)Nc1ccc(N2CCN(C(=O)C(O)c3ccccc3Br)CC2)cc1 (stereo not shown)")
13.8
>>> obs_value("COc1ccc(CC(=O)Nc2ccc(N3CCN(C(=O)Cc4c(Cl)cc(CN5CCCC5)cc4Cl)CC3)cc2)cc1")
245
>>> obs_value("CCc1cccc(N2CCN(CC(=O)Nc3ccc(C4CCN(C(=O)Nc5c(Cl)cccc5Cl)CC4)cc3)CC2)c1")
229
>>> obs_value("O[C@@H]1CO[C@H]2[C@@H]1OC[C@@H]2OC1CCN(c2ccc(-c3nc4cc(F)ccc4[nH]3)cn2)CC1")
64

###

pIC50: −log10 of the molar value.
Compiled from multiple publications: pIC50 readings for UniProt O75907.
REPORTED ENDPOINT: pIC50

>>> obs_value("CC1(C)Oc2ncnc(N)c2N=C1c1ccc([C@H]2CC[C@H](SCC(=O)O)CC2)cc1")
"7.00 to 8.00"
>>> obs_value("Cc1nc(N)c2c(n1)OC(C)(C)C(c1ccc([C@H]3CC[C@H](Cc4nc(=O)o[nH]4)CC3)cc1)=N2")
"> 8.00"
>>> obs_value("CC1(C)Oc2ncnc(N)c2N=C1c1ccc([C@H]2CC[C@H](C(=O)N3CCC(O)CC3)CC2)cc1")
"7.00 to 8.00"
>>> obs_value("CC1(C)Oc2ncnc(N)c2N=C1c1ccc([C@H]2CC[C@H](C(=O)NCC(=O)O)CC2)cc1")
"7.00 to 8.00"
>>> obs_value("CC1(C)Oc2ncnc(N)c2N=C1c1ccc([C@H]2CC[C@H](CNS(C)(=O)=O)CC2)cc1")
"7.00 to 8.00"
>>> obs_value("COc1ccc(C(=O)NN(C(=O)/C=C/c2cn(C(=O)OC(C)(C)C)c3ccccc23)C(C)C)cc1")
"< 4.00"
>>> obs_value("C=CCN(CC(=O)Nc1ccc(N2CCN(C(=O)Nc3c(Cl)cc(OC)cc3Cl)CC2)cc1)Cc1ccc(C)cc1C")
8.14

###

The compounds below each have a reported IC50 tested on UniProt O75907; the values come from various publications.
REPORTED ENDPOINT: IC50 (nM)

>>> obs_value("O=C(Nc1ccc(N2CCN(C(=O)Nc3c(Cl)cccc3Cl)CC2)cc1)c1cccc(N2CCOCC2)c1")
6.61
>>> obs_value("CC(C)(C)c1ccc(-c2ccccc2C(=O)Nc2ccc(N3CCN(C(=O)Nc4c(Cl)cccc4Cl)CC3)cc2)cc1")
117
>>> obs_value("CC(CN)C(=O)Nc1ccc(C2CCN(C(=O)Nc3c(Cl)cccc3Cl)CC2)cc1 (stereo not drawn)")
2570
>>> obs_value("O=C(CCCc1ccccc1)Nc1ccc(N2CCN(C(=O)Nc3cc(C(F)(F)F)ccc3Cl)CC2)cc1")
3310
>>> obs_value("COc1cc(Cl)c(NC(=O)N2CCN(c3ccc(NC(=O)CNc4ccc(C)cc4C)cc3)CC2)c(Cl)c1")
4.47
>>> obs_value("CN1CCC[C@H]1C(=O)NC(C)(C)C(=O)Nc1nc(-c2ccc(F)cc2)n(Cc2ccccc2)n1")
2300
>>> obs_value("CC(c1cc(Cl)c(NC(=O)N2CCN(c3ccc(NC(=O)CCCc4ccccc4)cc3)CC2)c(Cl)c1)N(C)C (stereo not drawn)")
10
>>> obs_value("Cc1cc(C(=O)NCCc2ccccc2)c2ccc(-c3ccc([C@H]4CC[C@H](CC(=O)O)CC4)cc3)cc2n1")
61
>>> obs_value("O=C(O)[C@H]1CC[C@@H](OC2CCN(c3ccc(-c4nc5cc(F)ccc5[nH]4)cn3)CC2)CC1")
6
>>> obs_value("O=C(O)CC1CC(OC2CCN(c3ccc(-c4nc5cc(F)ccc5[nH]4)cn3)CC2)C1 (stereo not drawn)")
56
>>> obs_value("O=C(NS(=O)(=O)c1ccccn1)[C@H]1CC[C@H](OC2CCN(c3ccc(-c4nc5cc(F)ccc5[nH]4)cn3)CC2)CC1")
25
>>> obs_value("CCOC(=O)c1ccc(CCCCCNC(=O)c2ccc(N3CCN(C(=O)Nc4c(Cl)cc(CN5CCCC5)cc4Cl)CC3)cc2)cc1")
9.77
>>> obs_value("O=C(O)CC1(O)CCc2cc(-c3ccc(NC(=O)Nc4cccc(C(F)(F)F)c4)cc3)ccc2C1 (stereo not drawn)")
357
>>> obs_value("CC(C(=O)N1CCN(c2ccc(NC(=O)CCCc3ccccc3)cc2)CC1)c1ccc(O)cc1 (stereo not drawn)")
5010
